Provenance of the data: patent US8680108B2

target desc: PI3Kδ (p110δ/p85α) (Homo sapiens, UniProt O00329)
Construct: purchased Millipore (Bedford, Mass.)
Sequence (O00329 whole entry): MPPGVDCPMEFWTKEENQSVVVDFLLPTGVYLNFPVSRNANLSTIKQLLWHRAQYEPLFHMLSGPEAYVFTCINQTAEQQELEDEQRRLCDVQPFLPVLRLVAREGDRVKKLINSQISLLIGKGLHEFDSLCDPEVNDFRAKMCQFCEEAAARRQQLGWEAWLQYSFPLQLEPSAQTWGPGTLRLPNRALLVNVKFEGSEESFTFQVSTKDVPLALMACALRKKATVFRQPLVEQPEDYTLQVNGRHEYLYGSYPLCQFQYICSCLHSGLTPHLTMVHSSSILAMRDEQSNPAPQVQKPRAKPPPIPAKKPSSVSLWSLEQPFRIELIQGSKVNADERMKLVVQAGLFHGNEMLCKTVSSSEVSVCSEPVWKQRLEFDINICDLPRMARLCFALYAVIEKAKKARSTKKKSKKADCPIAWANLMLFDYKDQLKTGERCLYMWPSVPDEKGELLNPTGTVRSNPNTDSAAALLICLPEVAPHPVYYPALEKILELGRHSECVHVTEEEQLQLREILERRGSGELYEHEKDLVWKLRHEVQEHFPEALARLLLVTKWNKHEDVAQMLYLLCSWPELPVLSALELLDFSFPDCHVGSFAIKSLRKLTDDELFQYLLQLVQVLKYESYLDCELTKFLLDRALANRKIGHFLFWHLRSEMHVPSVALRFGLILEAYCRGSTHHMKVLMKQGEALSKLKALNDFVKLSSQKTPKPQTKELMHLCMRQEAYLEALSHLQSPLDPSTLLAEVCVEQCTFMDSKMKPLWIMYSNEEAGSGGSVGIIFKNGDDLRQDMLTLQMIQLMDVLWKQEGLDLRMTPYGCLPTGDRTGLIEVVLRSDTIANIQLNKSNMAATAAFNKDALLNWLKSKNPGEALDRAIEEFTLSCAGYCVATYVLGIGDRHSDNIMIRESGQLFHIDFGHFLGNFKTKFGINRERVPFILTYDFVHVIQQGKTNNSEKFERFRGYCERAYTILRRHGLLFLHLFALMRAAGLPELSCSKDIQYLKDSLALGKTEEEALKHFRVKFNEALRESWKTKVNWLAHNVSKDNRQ
Sequence (P27986 whole entry partner): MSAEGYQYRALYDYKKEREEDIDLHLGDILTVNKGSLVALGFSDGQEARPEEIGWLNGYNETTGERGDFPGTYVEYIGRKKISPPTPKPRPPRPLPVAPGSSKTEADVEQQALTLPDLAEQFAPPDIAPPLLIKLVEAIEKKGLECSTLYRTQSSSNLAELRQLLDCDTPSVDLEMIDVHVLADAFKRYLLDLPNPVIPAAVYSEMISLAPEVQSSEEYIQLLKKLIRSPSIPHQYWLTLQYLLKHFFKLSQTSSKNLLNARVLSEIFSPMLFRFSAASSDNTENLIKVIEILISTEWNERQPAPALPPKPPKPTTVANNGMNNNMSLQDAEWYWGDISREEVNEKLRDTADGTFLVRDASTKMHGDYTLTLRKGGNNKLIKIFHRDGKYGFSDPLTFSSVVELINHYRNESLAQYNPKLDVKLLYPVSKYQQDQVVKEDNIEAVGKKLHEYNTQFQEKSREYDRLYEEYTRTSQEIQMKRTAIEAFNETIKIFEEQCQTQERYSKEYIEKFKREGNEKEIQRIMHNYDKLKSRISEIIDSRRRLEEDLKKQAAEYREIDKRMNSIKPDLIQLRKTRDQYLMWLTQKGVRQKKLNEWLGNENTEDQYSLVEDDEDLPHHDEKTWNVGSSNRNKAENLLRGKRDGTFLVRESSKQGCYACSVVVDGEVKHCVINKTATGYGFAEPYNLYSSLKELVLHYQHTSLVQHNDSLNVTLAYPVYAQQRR
test description: PI3Kδ scintillation proximity assay
Assay type: biochemical
condition summary: separated isomer, 2nd peak
Reported IC50 is given for each of the following molecules.

Solved entries (count: 4):
INSERT INTO assay_data (molecule, target_desc, result) VALUES
  ('CC(Nc1ncnc2[nH]cnc12)c1ccc2cccnc2c1-c1ccccc1F (stereo not drawn) [Example 7, bis-trifluoroacetate]', 'PI3Kδ (p110δ/p85α) (Homo sapiens, UniProt O00329)', '500 to 1000 nM'),
  ('COC1CCN(c2c(C(C)Nc3ncnc4[nH]cnc34)cc(Cl)c3cccnc23)C1 (stereo not drawn) [Example 68, tris(trifluoroacetate)]', 'PI3Kδ (p110δ/p85α) (Homo sapiens, UniProt O00329)', '< 50 nM'),
  ('COC1CCCN(c2c(C(C)Nc3ncnc4[nH]cnc34)cc(Cl)c3cccnc23)C1 (stereo not drawn) [Example 67, tris(trifluoroacetate)]', 'PI3Kδ (p110δ/p85α) (Homo sapiens, UniProt O00329)', '250 to 500 nM'),
  ('CC(Nc1ncnc2[nH]cnc12)c1cc(F)c2cccnc2c1N1CC[C@@H](O)C1 (stereo partly drawn) [Example 53]', 'PI3Kδ (p110δ/p85α) (Homo sapiens, UniProt O00329)', '100 to 250 nM');

Reported IC50 ( CC(C)C(=O)N[C@H]1CCN(c2c(C(C)Nc3ncnc4[nH]cnc34)cc(Cl)c3cccnc23)C1 (stereo partly drawn) [Example 78, tris(trifluoroacetate)] ) = < 50 nM

Record CCC(=O)N[C@H]1CCN(c2c(C(C)Nc3ncnc4[nH]cnc34)cc(Cl)c3cccnc23)C1 (stereo partly drawn) [Example 77, tris(trifluoroacetate)] . Reported IC50: < 50 nM

Input CC(Nc1ncnc2[nH]cnc12)c1cc(Cl)c2cccnc2c1N1CCC[C@H](O)C1 (stereo partly drawn) [Example 48] . Output IC50: > 1000 nM

IC50 recorded for this molecule, CC(Nc1ncnc2[nH]cnc12)c1cc(F)c2cccnc2c1-c1cccc(F)c1 (stereo not drawn) [Example 102] , is > 1000 nM

Value of measured IC50 for the entry CC(Nc1ncnc2[nH]cnc12)c1cc(Cl)c2cccnc2c1N1CC[C@@H](O)C1 (stereo partly drawn) [Example 12, bis-trifluoroacetate] : < 50 nM

Notebook: CC(Nc1ncnc2[nH]cnc12)c1cc(Cl)c2cccnc2c1N1CC[C@H](NS(C)(=O)=O)C1 (stereo partly drawn) [Example 80, tris(trifluoroacetate)] , IC50 read as < 50 nM

// IC50 value for COC(=O)N[C@H]1CCN(c2c(C(C)Nc3ncnc4[nH]cnc34)cc(Cl)c3cccnc23)C1 (stereo partly drawn) [Example 79, tris(trifluoroacetate)] : < 50 nM

Memo: CC(Nc1nc(N)nc2[nH]cnc12)c1ccc2ccccc2c1-c1cccc(F)c1 (stereo not drawn) [Example 4] , reported IC50: 500 to 1000 nM

Short answer for CC(Nc1ncnc2[nH]cnc12)c1cc(Cl)c2cccnc2c1-c1ccccc1F (stereo not drawn) [Example 10, bis-trifluoroacetate] : IC50 was < 50 nM

Sample CC(Nc1ncnc2[nH]cnc12)c1cc(Cl)c2cccnc2c1N1CCCC(CO)C1 (stereo not drawn) [Example 63, tris(trifluoroacetate)] ; IC50 observed: 100 to 250 nM

The reported value for CC(Nc1ncnc2[nH]cnc12)c1cc(Cl)c2cccnc2c1N1CCC(c2ccccc2)C1 (stereo not drawn) [Example 76, tris(trifluoroacetate)] in terms of IC50 is 250 to 500 nM
